Values from the Human Domainome abundance scans (Beltran et al. 2025)

B1: Proto-oncogene vav, residues 782 to 842; numbered along this chain, P15498 (parent)
chain: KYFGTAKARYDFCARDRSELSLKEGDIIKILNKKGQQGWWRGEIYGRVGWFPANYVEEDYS

variants of: B1; assay: abundance fitness (aPCA) (normalised: wild type 0, dead -1); higher = more abundant; growth selection in yeast, the domain comes from the species named; conditions: Homo sapiens
Recorded endpoint: abundance fitness

Chain sequence	abundance fitness
KYFGTAKARYDFCARDRSELSLKEGDIIKILNKKGQQAWWRGEIYGRVGWFPANYVEEDYS [G38A]	-0.619
KYFGTAKARYDFCARDRSELSLKEGDIIKILNKKGQQGWWRGEIYGRVGWFPANYVEEDRS [Y60R]	-0.005
KYFGTAKARYDFCARDRSELSLKEGDIIKILNKKGQQGWWRGEIYGRVGWFCANYVEEDYS [P52C]	-1.02
KYFGTAKARYDFCARDRSELSLKEGDIIKILNKKGQQGWWRGEIYGRVGWEPANYVEEDYS [F51E]	-0.913
KYFGTAKARYDFCARDRSELSLKEGDIIKILNKKGQQGWWEGEIYGRVGWFPANYVEEDYS [R41E]	0.018
KYFGTAKARYDFCARDRSELSLKEGDIIKILAKKGQQGWWRGEIYGRVGWFPANYVEEDYS [N32A]	-0.031

For the variant KYFGTPKARYDFCARDRSELSLKEGDIIKILNKKGQQGWWRGEIYGRVGWFPANYVEEDYS [A6P] , what abundance fitness is on record?
-0.832

KYFGTAKARYDFCARDRSELSLKEGDIIKILNKKGQQGWWRGEIYGRVGGFPANYVEEDYS [W50G] ?
-0.699

Next up: KYFGTAKARYDFCARDRSELSLKEGDIIKIMNKKGQQGWWRGEIYGRVGWFPANYVEEDYS [L31M]
-0.366

Try this variant too: KYFGTAKARYDFCARDRSELSLKEGDIIKILNKKGQQGWWRGEIYGRVGWFSANYVEEDYS [P52S]
-0.95

Would you kindly repeat that for KYFGTHKARYDFCARDRSELSLKEGDIIKILNKKGQQGWWRGEIYGRVGWFPANYVEEDYS [A6H] ?
-0.677

Now consider KYFGTAKARYDFCARDRSELSLKEGDIIKILNKKGQQGWWRGEIYGRVGWFPANYVEERYS [D59R] and answer again.
-0.285

Item: KYFGTAKARYDFCARDRSELSLKEGDIIKILNKKGQQGWWRGEIYGRVGWFPANYVYEDYS [E57Y]
-0.106

Likewise for KLFGTAKARYDFCARDRSELSLKEGDIIKILNKKGQQGWWRGEIYGRVGWFPANYVEEDYS [Y2L] ?
-0.323

Try KYFGTAKARYEFCARDRSELSLKEGDIIKILNKKGQQGWWRGEIYGRVGWFPANYVEEDYS [D11E] next.
-0.159

Try this variant next: KYFGTAKARYDFCARDRSELSLKEYDIIKILNKKGQQGWWRGEIYGRVGWFPANYVEEDYS [G25Y]
-1.02

Consider next the variant KYFGTAKARYDFCARDRSELSLKEGDIIKILNKKGQQGWWRGEIYGRVGWFPNNYVEEDYS [A53N] in the same way.
-0.444

Likewise for SYFGTAKARYDFCARDRSELSLKEGDIIKILNKKGQQGWWRGEIYGRVGWFPANYVEEDYS [K1S] ?
-0.198

Check KYFGTAKARYDFCARDRSELYLKEGDIIKILNKKGQQGWWRGEIYGRVGWFPANYVEEDYS [S21Y] too.
-0.513

Follow-up entry: KYFGTAKARYDFCARDRSELSLWEGDIIKILNKKGQQGWWRGEIYGRVGWFPANYVEEDYS [K23W]
-0.816

Another variant to look at: KYFGTAKARYDFCARDRSELSLKEGDIIKILNKKGQQGWWRGEIYGWVGWFPANYVEEDYS [R47W]
-0.841

Would you kindly repeat that for KYFGTAKARYDMCARDRSELSLKEGDIIKILNKKGQQGWWRGEIYGRVGWFPANYVEEDYS [F12M] ?
-0.827

Param item: KYFGTAKARYDFCAGDRSELSLKEGDIIKILNKKGQQGWWRGEIYGRVGWFPANYVEEDYS [R15G]
-0.316

Next up: KYFGTAKARYDFCARDRSELSLKEGDIIKILNKKGQQGWWRGEIYGYVGWFPANYVEEDYS [R47Y]
-0.503

Note, next up: KYFGTAKARYDFCARDRSELSLKEGDIIKILNKKGQQGWWRGEIYGRVTWFPANYVEEDYS [G49T]
-0.506
